// data source = PubChem BioAssay AID651965

Target: ATP-dependent Clp protease proteolytic subunit (Bacillus subtilis (strain 168)) (UniProt P80244)
Assay: qHTS Assay for Activators of ClpP; note: the source files actives as falling curves though it sought activators and does not explain the sign; nearly all actives have a fitted effect of over 65% in size
Conditions: purified B. subtilis ClpP, FRET peptide cleavage, 20 min; series mostly up to 57.5 µM
The whole screen tested about 340,000 compounds, of which about 6,400 (1.9%) were called active. Another 4% or so got no clear call; they are omitted. Calls come from the whole dose curve; as a rule, active = well fitted falling curve with a large enough effect; inconclusive = small, poorly fitted or top-dose-only effect; inactive = no such curve, though single readings can be large or run the other way. The sample as a whole holds a higher share of actives than the screen did.
Field 'call' accepts active, inactive

-- ask So what was the verdict on CC(C)C1C(=O)N(Cc2cn(CCC3OCCO3)nn2)CCS(=O)(=O)N1Cc1ccc(-c2ccccc2C(F)(F)F)cc1 (centres undefined) in this test?
-- reply inactive

-- ask So what was the verdict on O=C(Nc1cccc2cccnc12)c1ccc2sc([C@H]3C[C@H](O)[C@@H](CO)O3)nc2c1 in this test?
-- reply inactive

-- ask So what was the verdict on Cc1ccccc1-c1csc(C(O)c2cccc(Cl)c2)n1 (centres undefined) in this test?
-- reply inactive

-- ask So what was the verdict on CCC(C)Nc1oc(-c2ccc(COc3ccc(Cl)cc3)o2)nc1C#N (centres undefined) in this test?
-- reply active

-- ask So what was the verdict on Cc1cc2oc(=O)cc(CN(C)Cc3ccccc3)c2cc1Cl in this test?
-- reply inactive

-- ask So what was the verdict on COc1ccc(OCc2ccc(-c3nc(C#N)c(N4CCN(c5ccccc5)CC4)o3)o2)cc1 in this test?
-- reply inactive

-- ask So what was the verdict on CN(Cc1ccccc1)C(=O)CCC1CCN(C(=O)c2ccco2)CC1 in this test?
-- reply inactive

-- ask So what was the verdict on CCCc1ccc(C(O)c2ncc(-c3cccc(OC)c3)[nH]2)cc1 (centres undefined) in this test?
-- reply inactive

-- ask So what was the verdict on CO[C@@H]1CN(C)C(=O)c2cc(NC(=O)Nc3cc(F)ccc3F)ccc2OC[C@H](C)N(C(=O)c2ccccn2)C[C@@H]1C in this test?
-- reply inactive

---

Target: ATP-dependent Clp protease proteolytic subunit (Bacillus subtilis (strain 168)) (UniProt P80244)
Test: qHTS Assay for Activators of ClpP; note: the source files actives as falling curves though it sought activators and does not explain the sign; nearly all actives have a fitted effect of over 65% in size
Conditions: purified B. subtilis ClpP, FRET peptide cleavage, 20 min; series mostly up to 57.5 µM
Description: The Clp protease proteolytic subunit (ClpP) is the core unit of the Clp complex belonging to the peptidase family S14 that hydrolyzes protein into small peptides in the presence of ATP and magnesium. It is ubiquitously expressed and is the major protease in bacteria. […] Unlike common antibiotics that simply interfere with the essential enzyme activity, ADEP binding activates the ClpP core in the absence of the regulatory Clp-ATPases leading to uncontrolled proteolysis and eventually cell death. […]
Among all 340,000 compounds or so, about 6,400 (1.9%) were called active. Inconclusive results (about 4%) are left out. Calls come from the whole dose curve; as a rule, active = well fitted falling curve with a large enough effect; inconclusive = small, poorly fitted or top-dose-only effect; inactive = no such curve, though single readings can be large or run the other way. Many of the other results were omitted from the sample, so actives are more common in it than they were.
Field 'call' accepts yes (1) (active), no (0) (inactive)

-- ask So what was the verdict on CCN(CCCNC(=O)c1cc2cc3cc(OC)ccc3nc2s1)c1ccccc1 in this test?
-- reply no (0)

-- ask So what was the verdict on CCN1CCN(c2ccc(/C=C/c3ccnc4ccccc34)cc2)CC1 in this test?
-- reply no (0)

-- ask So what was the verdict on O=C(Cn1c(-c2ccccn2)nc2ccccc21)NCCN1CCOCC1 in this test?
-- reply yes (1)

-- ask So what was the verdict on CC(C)C1CCN(C(=O)C2CCC(=O)N(C3CCCCCC3)C2)CC1 (stereo not drawn) in this test?
-- reply no (0)

-- ask So what was the verdict on CC1=C(C(=O)Nc2ccccc2)C(c2ccc(C)cc2)n2nc(SCc3ccccc3C)nc2N1 (stereo not drawn) in this test?
-- reply no (0)

-- ask So what was the verdict on COc1ccc(-c2nc(=N)sn2-c2ccccc2)cc1 in this test?
-- reply no (0)

-- ask So what was the verdict on O=c1oc2ccc(C#CC3(O)CCCCC3)cc2cc1-n1cc(-c2ccsc2)nn1 in this test?
-- reply yes (1)

-- ask So what was the verdict on CCOC(=O)C(=Cc1ccccc1)C(=O)c1ccccc1 in this test?
-- reply no (0)

-- ask So what was the verdict on Cc1ccc(C2CCN(C(=S)Nc3cccc(Cl)c3)C2)cc1 (stereo not drawn) in this test?
-- reply no (0)

-- ask So what was the verdict on COc1cccc(C(O)c2ncc(-c3ccc4ccccc4c3)[nH]2)c1 (stereo not drawn) in this test?
-- reply no (0)

-- ask So what was the verdict on COC(=O)C[C@@H]1C=C[C@@H](NC(=O)c2cccnc2)[C@@H](CO)O1 in this test?
-- reply no (0)

-- ask So what was the verdict on Cc1cc(Br)cn2c(Cc3ccsc3)c(-c3ccc(C#N)cc3)nc12 in this test?
-- reply no (0)

-- ask So what was the verdict on COc1ccc(-c2cc(-c3ccc(F)cc3)nc3c2COc2ccccc2-3)cc1 in this test?
-- reply no (0)

-- ask So what was the verdict on O=C(Cc1ccccc1)Nc1sc2c(c1C(=O)Nc1ccc(Br)cc1)CCC2 in this test?
-- reply no (0)

-- ask So what was the verdict on Cc1ccc(C(O)c2ncc(-c3ccccc3F)[nH]2)cc1F (stereo not drawn) in this test?
-- reply no (0)

-- ask So what was the verdict on COc1ccccc1-c1cc(NC(C)=O)c2ncc(-c3ccc(F)cc3)n2c1 in this test?
-- reply no (0)

-- ask So what was the verdict on CCOC(=O)c1ccc(Nc2cc3ccccc3c(=O)[nH]2)cc1 in this test?
-- reply no (0)

-- ask So what was the verdict on Cc1ccc(C2=N/C(=C\c3ccc(OS(=O)(=O)c4ccc(C)cc4)cc3)C(=O)O2)cc1 in this test?
-- reply no (0)

-- ask So what was the verdict on Cc1cc2c(cc1C)N1C(=O)c3cc4ccccc4cc3NC(=O)C1C(=O)N2 (stereo not drawn) in this test?
-- reply no (0)

-- ask So what was the verdict on COc1cccc(C(NC(C)=O)c2nc(-c3cnc4ccccc4c3)cs2)c1 (stereo not drawn) in this test?
-- reply no (0)

-- ask So what was the verdict on CCOc1ccc(NC(=O)c2ncoc2-c2ccco2)cc1 in this test?
-- reply no (0)

-- ask So what was the verdict on CCOC(=O)C1=C(CCc2ccccc2)NC(=O)NC1c1ccc2ccccc2c1 (stereo not drawn) in this test?
-- reply no (0)

-- ask So what was the verdict on Cc1ccc(S(=O)(=O)N2CCN(c3nc(-n4cnc5ccccc54)nc4ccccc34)CC2)cc1 in this test?
-- reply no (0)

-- ask So what was the verdict on CC1=CC(C)(C)Nc2ccc(OC(=O)C(Cc3ccccc3)N3C(=O)C4CCCCC4C3=O)cc21 (stereo not drawn) in this test?
-- reply yes (1)

-- ask So what was the verdict on O=S1(=O)CC(N2CCN(Cc3ccccc3F)CC2)CN1Cc1cn(Cc2ccccc2)nn1 (stereo not drawn) in this test?
-- reply no (0)

-- ask So what was the verdict on Cc1nccn1-c1ccc(NC(=O)[C@H]2O[C@@H](n3cnc4c(N)ncnc43)[C@H](O)[C@@H]2O)cc1 in this test?
-- reply no (0)

-- ask So what was the verdict on COc1ccc(CC(=O)Nc2c(C(N)=O)oc3ccccc23)cc1 in this test?
-- reply no (0)

-- ask So what was the verdict on O=C(CN1CCCC1)Nc1sc2c(c1C(=O)Nc1ccccc1)CCCC2 in this test?
-- reply yes (1)

-- ask So what was the verdict on O=C(C(=O)N1CCC(c2ccccc2)CC1)c1ccccc1 in this test?
-- reply no (0)

-- ask So what was the verdict on CC(=O)Nc1ccc(NC(=O)COc2ccc(-c3ccccc3)cc2)cc1 in this test?
-- reply no (0)

-- ask So what was the verdict on COc1cccc(CNc2nc(NCc3ccccc3OC)nc3ccsc23)c1 in this test?
-- reply no (0)

-- ask So what was the verdict on O=C(CSc1nnc(-c2ccco2)o1)NCC(=O)c1ccccc1 in this test?
-- reply no (0)

-- ask So what was the verdict on O=C(CSc1nnc(-c2ccc(NS(=O)(=O)c3ccccc3)cc2)o1)NCC1CCCO1 (stereo not drawn) in this test?
-- reply no (0)

-- ask So what was the verdict on Cc1nc2ccc(NC(=O)N3CCC(c4ccccc4)C3)cc2nc1C (stereo not drawn) in this test?
-- reply yes (1)

-- ask So what was the verdict on COc1ccc(-c2cn3ccc(C)cc3n2)cc1 in this test?
-- reply no (0)

-- ask So what was the verdict on O=C1Nc2ccccc2-n2nnnc2C1N1CCN(c2cccc(C(F)(F)F)n2)CC1 (stereo not drawn) in this test?
-- reply no (0)

-- ask So what was the verdict on Cc1ccc(C2=C/C(=C\c3cccnc3)C(=O)O2)cc1 in this test?
-- reply no (0)

-- ask So what was the verdict on Cc1ccc(OCC(=O)Nc2ccc(-c3nnc(-c4ccco4)o3)cc2)cc1 in this test?
-- reply yes (1)

-- ask So what was the verdict on CCc1c(-c2ccc(F)cc2)ncn1Cc1cccc(-c2ccccc2)c1 in this test?
-- reply no (0)

-- ask So what was the verdict on CCCCCc1c(-c2ccc(OC)c(OC)c2)ncn1CCc1ccccc1OC in this test?
-- reply no (0)

-- ask So what was the verdict on Cc1cccc(N(CC(=O)Nc2ccc(-c3nc4ccc(C)cc4s3)cc2)S(C)(=O)=O)c1 in this test?
-- reply yes (1)

-- ask So what was the verdict on CCN(CC)S(=O)(=O)c1ccc(NC(=O)CN(c2cccc(F)c2)S(C)(=O)=O)cc1 in this test?
-- reply no (0)

-- ask So what was the verdict on O=C(CCN1C(=O)c2ccccc2C1=O)NCCN1CCOCC1 in this test?
-- reply no (0)
